Method description: A qHTS for Small Molecule Inhibitors of Shiga Toxin; note: 0% is about no effect
Condition set: Vero cells, Shiga toxin protein synthesis inhibition reporter; at 38.7 µM, stronger effect = higher value
Out of some 290,000 compounds screened, about 27,000 (9.3%) were called active. The list comes from a sample in which actives are over-represented; it also holds close analogues and randomly drawn compounds.
# label = 1.0 if inhibition >= 60% else 0.0

## Task Threshold query (inhibition >= 60%) on O=C(Nc1ccc(N2CCOCC2)cc1)c1ccc2c(c1)OCO2
## Result 1.0

## Task Threshold query (inhibition >= 60%) on CCSc1ccccc1C(=O)Nc1ccc2c(c1)OCO2
## Result 0.0

## Task Threshold query (inhibition >= 60%) on CC(C)C(=O)Nc1cccc(C(=O)Nc2ccc3c(c2)OCO3)c1
## Result 1.0

## Task Threshold query (inhibition >= 60%) on C=CCCN(C(Cc1ccccc1)C(=O)OC)S(=O)(=O)c1cc(Br)ccc1Br (stereo unspecified)
## Result 0.0

## Task Threshold query (inhibition >= 60%) on O=C(Nc1ccc(C(=O)N2CCCCC2)cc1)c1cccc([N+](=O)[O-])c1
## Result 0.0
